pKi: −log10 of the molar value.
A set of molecules tested on trypsin 2 (anionic trypsin) (Homo sapiens, UniProt P07478), with measured pKi:
EXPERIMENTAL_ENDPOINT: pKi

N=C(N)c1ccc(/C=C/c2ccc(C(=N)N)cc2O)cc1 [Hydroxystilbamidine, hydroxystilbamidine] :: 5.77

a = N=C(N)c1ccc(OCCCCCOc2ccc(C(=N)N)cc2)cc1
b = N=C(N)c1ccc(/N=N/Nc2ccc(C(=N)N)cc2)cc1
*Q* Given a and given b , which shows the smaller recorded pKi? Record your answer as the label of the chosen record.
*A* b
(b: 5.64, a: 5.97)

====

SYSTEM_NAME: mesotrypsin (Homo sapiens)
Sequence (P35030 81-304 limits assumed): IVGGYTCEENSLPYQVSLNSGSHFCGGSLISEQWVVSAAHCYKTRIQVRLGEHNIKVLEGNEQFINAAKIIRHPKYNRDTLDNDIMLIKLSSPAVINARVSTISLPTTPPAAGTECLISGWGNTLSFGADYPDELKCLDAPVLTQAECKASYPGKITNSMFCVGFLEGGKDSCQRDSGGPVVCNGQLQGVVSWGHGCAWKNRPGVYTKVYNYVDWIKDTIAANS
pKi: −log10 of the molar value.
EXPERIMENTAL_ENDPOINT: pKi

N=C(N)c1ccc(/N=N/Nc2ccc(C(=N)N)cc2)cc1 :: 5.44

I = N=C(N)c1ccc(OCCCCCOc2ccc(C(=N)N)cc2)cc1
II = N=C(N)c1ccc(/C=C/c2ccc(C(=N)N)cc2O)cc1 [Hydroxystilbamidine, hydroxystilbamidine]
*Q* When their pKi values are compared, which is larger, I or II ? Record your answer as the label of the chosen record.
*A* I
(I: 5.29, II: 4.98)
